So I've got a bunch of compounds here, and I need their activity coefficient values.
Protocol text: activity coefficient (dimensionless); of the first substance listed, at infinite dilution; xn = mol fraction of the nth substance listed
Test settings: 318.15 K; 101 kPa; Liquid; Chromatography; x1 = 0
Give bare numbers.

compound="c1ccccc1 [benzene] + CCn1cc[n+](C)c1.N#C[B-](C#N)(C#N)C#N" reported_value=1.15
compound="ClCCl [dichloromethane] + CCn1cc[n+](C)c1.N#C[B-](C#N)(C#N)C#N" reported_value=0.656
compound="C=CCCCCCC [oct-1-ene] + CCn1cc[n+](C)c1.N#C[B-](C#N)(C#N)C#N" reported_value=28.8

Would you mind listing activity coefficient for each of the following compounds?
1. CCC(C)=O [butanone] + CCn1cc[n+](C)c1.N#C[B-](C#N)(C#N)C#N
2. CCOC(C)=O [ethyl acetate] + CCn1cc[n+](C)c1.N#C[B-](C#N)(C#N)C#N
3. CC(C)O [propan-2-ol] + CCn1cc[n+](C)c1.N#C[B-](C#N)(C#N)C#N
4. CCCCCCC [heptane] + CCn1cc[n+](C)c1.N#C[B-](C#N)(C#N)C#N
5. COC(C)(C)C [2-methoxy-2-methylpropane] + CCn1cc[n+](C)c1.N#C[B-](C#N)(C#N)C#N
6. FC(F)(F)C(Cl)Br (stereo not given) [1-bromo-1-chloro-2,2,2-trifluoroethane] + CCn1cc[n+](C)c1.N#C[B-](C#N)(C#N)C#N

Response:
1. 0.577
2. 0.989
3. 1.63
4. 42.4
5. 2.77
6. 1.16

Below are some compounds; for each one, tell me its activity coefficient.
1. CC(C)OC(C)C [diisopropyl ether] + CCn1cc[n+](C)c1.N#C[B-](C#N)(C#N)C#N
2. CC(C)=O [acetone] + CCn1cc[n+](C)c1.N#C[B-](C#N)(C#N)C#N
3. COCCOC [1,2-dimethoxyethane] + CCn1cc[n+](C)c1.N#C[B-](C#N)(C#N)C#N
4. C[N+](=O)[O-] [nitromethane] + CCn1cc[n+](C)c1.N#C[B-](C#N)(C#N)C#N
5. c1ccsc1 [thiophene] + CCn1cc[n+](C)c1.N#C[B-](C#N)(C#N)C#N
6. CC1CCCCC1 [methylcyclohexane] + CCn1cc[n+](C)c1.N#C[B-](C#N)(C#N)C#N
7. CCC1CCCCC1 [ethylcyclohexane] + CCn1cc[n+](C)c1.N#C[B-](C#N)(C#N)C#N
8. CCO [ethanol] + CCn1cc[n+](C)c1.N#C[B-](C#N)(C#N)C#N

Response:
1. 7.07
2. 0.437
3. 0.452
4. 0.419
5. 0.942
6. 20.4
7. 318
8. 1.3

For every record below, what is its activity coefficient?
1. ClC(Cl)(Cl)Cl [tetrachloromethane] + CCn1cc[n+](C)c1.N#C[B-](C#N)(C#N)C#N
2. COC(C)=O [methyl ethanoate] + CCn1cc[n+](C)c1.N#C[B-](C#N)(C#N)C#N
3. C1CCCCC1 [cyclohexane] + CCn1cc[n+](C)c1.N#C[B-](C#N)(C#N)C#N
4. C1CCOC1 [tetrahydrofuran] + CCn1cc[n+](C)c1.N#C[B-](C#N)(C#N)C#N
5. COC(=O)OC [dimethyl carbonate] + CCn1cc[n+](C)c1.N#C[B-](C#N)(C#N)C#N

Response:
1. 3.56
2. 0.653
3. 13.8
4. 0.699
5. 0.528

Data provenance: the NIST ThermoML archive (doi:10.1016/j.jct.2011.09.028)
